Would you mind telling me the reported kd var/kd wt of each entry?
target: T1, human TGFβ1 (human, UniProt P01137 279-390); test: Biacore off-rate vs wt GC1008, 50 nM
T1 construct: also called TGFβ1 homodimer
T1 sequence (P01137 279-390 limits assumed): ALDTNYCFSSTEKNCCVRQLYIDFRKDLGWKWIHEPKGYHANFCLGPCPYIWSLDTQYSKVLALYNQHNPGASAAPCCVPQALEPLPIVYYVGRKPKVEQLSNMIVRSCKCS
Response field accepts a number only; no unit should be typed.

**Query** Please give the measured kd var/kd wt for this binder: S30C (antibody, V domains shown, GC1008 IgG4 variant) VH: QVQLVQSGAEVKKPGSSVKVSCKASGYTFCSNVISWVRQAPGQGLEWMGGVIPIVDIANYAQRFKGRVTITADESTSTTYMELSSLRSEDTAVYYCASTLGLVLDAMDYWGQGTLVTVSS VL: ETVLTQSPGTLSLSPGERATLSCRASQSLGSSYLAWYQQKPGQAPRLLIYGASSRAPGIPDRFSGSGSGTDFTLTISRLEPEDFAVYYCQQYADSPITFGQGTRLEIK
**Result** 1.2

**Query** Field request: kd var/kd wt | item: N32K (antibody, V domains shown, GC1008 IgG4 variant) VH: QVQLVQSGAEVKKPGSSVKVSCKASGYTFSSKVISWVRQAPGQGLEWMGGVIPIVDIANYAQRFKGRVTITADESTSTTYMELSSLRSEDTAVYYCASTLGLVLDAMDYWGQGTLVTVSS VL: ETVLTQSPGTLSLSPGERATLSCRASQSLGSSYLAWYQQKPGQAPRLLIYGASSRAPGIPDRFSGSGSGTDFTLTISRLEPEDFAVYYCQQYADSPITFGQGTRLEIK
**Result** 2.7

**Query** Please look up its kd var/kd wt: Y27F (antibody, V domains shown, GC1008 IgG4 variant) VH: QVQLVQSGAEVKKPGSSVKVSCKASGFTFSSNVISWVRQAPGQGLEWMGGVIPIVDIANYAQRFKGRVTITADESTSTTYMELSSLRSEDTAVYYCASTLGLVLDAMDYWGQGTLVTVSS VL: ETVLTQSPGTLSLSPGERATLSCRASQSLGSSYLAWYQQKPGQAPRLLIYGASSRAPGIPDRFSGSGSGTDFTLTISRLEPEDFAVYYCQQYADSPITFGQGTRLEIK
**Result** 1.3
